Form field: PBM binding z-score (one value per entry).
- Test system: RARb:RXRa (NR concentration 270 nM, RXRa partner concentration 90 nM)
- Measurement Notes: PBM binding z-score (relative to random genomic background probes); higher = stronger binding; sequences stand for … in GC…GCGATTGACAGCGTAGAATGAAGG

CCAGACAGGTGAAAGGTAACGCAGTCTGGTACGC: 1.47

## Input Need PBM binding z-score, item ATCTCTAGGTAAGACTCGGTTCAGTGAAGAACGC
## Output 0.192

## Input Tell me the measured PBM binding z-score of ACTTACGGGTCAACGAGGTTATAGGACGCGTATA , please.
## Output 4.41

## Input Entry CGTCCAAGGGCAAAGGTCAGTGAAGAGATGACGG : reported PBM binding z-score = ?
## Output 4.78

## Input Query (sequence): ACTAGCAGGCCAAGTTTGGGGCACTCAAACAAAG ; field requested: PBM binding z-score
## Output 0.744

## Input What does the data say about its PBM binding z-score? Entry: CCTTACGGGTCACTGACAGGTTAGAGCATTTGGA
## Output 3.95

## Input What does the record list as PBM binding z-score for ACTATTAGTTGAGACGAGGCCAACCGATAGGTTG ?
## Output 0.81

## Input Which PBM binding z-score reading was recorded for the sequence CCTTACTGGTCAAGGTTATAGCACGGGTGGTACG ?
## Output 2.02

====

- Tested on: VDR homodimer (NR concentration 270 nM)
- Measurement Notes: PBM binding z-score (relative to random genomic background probes); higher = stronger binding; sequences stand for … in GC…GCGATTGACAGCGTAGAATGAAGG
Experimental Readout: PBM binding z-score
The answer should be written as a number, with no unit following it.

Worked examples follow.
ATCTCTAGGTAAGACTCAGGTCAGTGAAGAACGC: 0.803
CGTTCAAGGTCAAGGTCAGTGAAAGAGACTCGAA: 3.59
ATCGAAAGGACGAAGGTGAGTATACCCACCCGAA: -0.271
TCATATAGGTAAATGCTAGGTGAAATTCCGATCT: -0.0885
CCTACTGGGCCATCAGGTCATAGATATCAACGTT: 1.11

## Input Need PBM binding z-score of AGAATGAGGTTACCAAAGATTAGGGAAACGCTTG , thanks.
## Output 0.29

## Input Fill blank: measured PBM binding z-score of the sequence GGAGACAGGTGAAACGCAGGTAACTCAGGGTGGC is ____.
## Output -0.609

## Input Can you look up the measured PBM binding z-score of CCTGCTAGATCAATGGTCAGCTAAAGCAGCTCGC for me?
## Output -0.711

## Input I'd like to know its PBM binding z-score. The sequence in question is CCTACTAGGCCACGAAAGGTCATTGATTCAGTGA
## Output 2.66

## Input Quick one: PBM binding z-score of ATATGTAGGTTGGCTGGGGTCATTCAGACTAGGC ?
## Output 5.57

## Input Item under review: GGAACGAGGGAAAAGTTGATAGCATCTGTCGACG . Reported PBM binding z-score?
## Output -0.433

## Input Name the reported PBM binding z-score value associated with the sequence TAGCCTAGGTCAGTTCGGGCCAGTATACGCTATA
## Output 0.242

## Input Quick check: PBM binding z-score of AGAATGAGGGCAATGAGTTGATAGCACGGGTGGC ?
## Output 3.47

====

- Test system: PPARg:RXRa IVT, anti-PPARg (NR concentration 270 nM, RXRa partner concentration 90 nM)
- Measurement Notes: PBM binding z-score (relative to random genomic background probes); higher = stronger binding; sequences stand for … in GC…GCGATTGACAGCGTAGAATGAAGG
Experimental Readout: PBM binding z-score

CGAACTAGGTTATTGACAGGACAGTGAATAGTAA: 5.11
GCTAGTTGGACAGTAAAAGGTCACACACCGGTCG: 2.16
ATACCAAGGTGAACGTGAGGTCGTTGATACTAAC: 3.17
GATAAAGGGTCAAGGCCAGAGTACGCGTATTGAT: 4.58
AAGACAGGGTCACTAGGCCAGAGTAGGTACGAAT: 5.06

From here, focus on the item given below.
## Input Identify the measured PBM binding z-score of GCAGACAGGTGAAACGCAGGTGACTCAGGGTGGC for PPARg:RXRa IVT, anti-PPARg (NR concentration 270 nM, RXRa partner concentration 90 nM).
## Output 1.27

====

- Tested on: RARb:RXRa (NR concentration 270 nM, RXRa partner concentration 90 nM)
- Measurement Notes: PBM binding z-score (relative to random genomic background probes); higher = stronger binding; sequences stand for … in GC…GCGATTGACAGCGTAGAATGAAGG
// values below are reported PBM binding z-score
Output: the number by itself.

Solved cases below.
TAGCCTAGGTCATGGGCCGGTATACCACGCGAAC: 3.9
CCTATTGGGCCATTCAGAGGTCATTGATCATATG: 3.28

## Input // query PBM binding z-score value for entry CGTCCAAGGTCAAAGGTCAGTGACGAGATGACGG
## Output 5.86

## Input Looking for the measured PBM binding z-score of GCTGCTAGGTCAACGGATGGTCAGCTAAAGCTCG , can you help?
## Output 4.19

## Input For the sequence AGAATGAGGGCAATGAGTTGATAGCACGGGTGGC , what PBM binding z-score is on record?
## Output 2.04

## Input Fill in: PBM binding z-score of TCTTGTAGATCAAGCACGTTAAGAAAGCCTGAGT is ___
## Output -0.035

## Input Suppose we examine the sequence TAGCCTAGGTCATGGGCCAGTATGCCACGCGAAC ; what PBM binding z-score value has been reported?
## Output 3.93

## Input Form field: reported PBM binding z-score of TCATATAGGTAAAGGTGAAACTCGAACGATATGA
## Output 2.05

====

- Tested on: RXRa homodimer (NR concentration 180 nM)
- Measurement Notes: PBM binding z-score (relative to random genomic background probes); higher = stronger binding; sequences stand for … in GC…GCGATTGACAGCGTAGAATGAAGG
Here the recorded PBM binding z-score is given for each entry.
Field format: numeric only.

CGTCCAAGGTCAAGGTCAGTGAAAGAGACTCGAA: 6.28
AGTCAAAGTTCATCTAGGCAACGTAAGATATGCT: 4.97
TCTGCTAGGTCAGTTGGACAGCTAACGAGCTGCC: 0.621
TAGCCTAGGTCATTGGGCCAGAATAGTACGCATC: 2.8
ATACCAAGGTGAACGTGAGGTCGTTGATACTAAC: 2.68
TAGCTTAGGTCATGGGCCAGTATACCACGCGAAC: 3.74
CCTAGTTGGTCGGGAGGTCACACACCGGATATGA: 5.07
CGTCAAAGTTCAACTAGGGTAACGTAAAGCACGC: 5.44

## Input For the sequence AGAATGAGGTGACCAAAGATCAGGGAAACGCTTG , what PBM binding z-score is on record?
## Output 1.51

## Input Requested field: PBM binding z-score. Item: TAGCCTAGGTCAGGGGCCAGTATACCACGCGAAC
## Output 2.16

## Input Would you kindly share the measured PBM binding z-score for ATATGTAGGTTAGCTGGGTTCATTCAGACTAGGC ?
## Output 2.38

## Input Data request, read-out PBM binding z-score, for CCTCCTGGGCCATCAGGTCATTGATATCAACGTT
## Output 1.15

## Input What measured PBM binding z-score goes with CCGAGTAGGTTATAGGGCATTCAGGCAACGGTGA ?
## Output 1.19

## Input Param item = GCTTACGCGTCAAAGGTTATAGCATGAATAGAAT ; retrieve measured PBM binding z-score.
## Output 3.35

## Input Consider the sequence shown here: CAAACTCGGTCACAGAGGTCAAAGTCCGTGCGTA What is its recorded PBM binding z-score?
## Output 6.63

## Input Entry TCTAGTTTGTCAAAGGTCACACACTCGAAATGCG : reported PBM binding z-score = ?
## Output 6.98

## Input What does the record list as PBM binding z-score for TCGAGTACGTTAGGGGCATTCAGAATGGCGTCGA ?
## Output 0.3

## Input What does the data say about its PBM binding z-score? Entry: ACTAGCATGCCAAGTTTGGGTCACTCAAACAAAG
## Output 0.674

## Input Find the recorded PBM binding z-score belonging to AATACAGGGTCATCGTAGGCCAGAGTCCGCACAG and report it.
## Output 6.62

## Input State the recorded PBM binding z-score for this entry: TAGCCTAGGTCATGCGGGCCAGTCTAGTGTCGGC
## Output 2.42
